Catalogue of z-score readings, one per entry.
# procedure_text: HepG2 cell viability effects, profiling panel, calcein-AM fluorescence, 48 h, basal (AID 1164)
# setup_conditions: higher = more signal

compound	z-score
C=CCC(OC(C)=O)[C@@H]1[C@@H](N(Cc2cccc3ccccc23)C(=O)c2cccc3ccccc23)c2cc(OCCCO)ccc2N1C(=O)Cc1ccc(OC)cc1 (stereo partly specified)	0.486
COCCOC(=O)N1C(=O)[C@@]2(c3cc(C#CCCO)ccc31)[C@H](c1ccccc1OCCO)N1[C@H](c3ccccc3)[C@H](c3ccccc3)OC(=O)[C@H]1[C@@H]2C(=O)NC[C@H](O)c1ccccc1	-0.527
COc1ccc(C#Cc2ccc3c(c2)[C@]2(C(=O)N3)[C@H](c3ccc(O)cc3)N3[C@H](c4ccccc4)[C@H](c4ccccc4)OC(=O)[C@H]3[C@@H]2C(N)=O)cc1	-4.79
CC(C)(C)OC(=O)CC[C@@]12N=C(c3ccc(OCCCO)cc3)O[C@@H]1c1ccccc1N(Cc1ccccc1)C2=O	-0.186
CO[C@H]1O[C@H](CO)[C@@H](OC(=O)Nc2ccccc2)[C@H](OC(=O)Nc2ccc3c(c2)OCO3)[C@H]1OC(=O)Nc1ccc2c(c1)OCO2	-1.27
CCCCC(=C=CC[C@H](O)c1cccc(OCCO)c1)CCO	-0.693

---

# procedure_text: small-molecule microarray binders of probe aNog, primary screen, biochemical, biotinylated probe, 635/667 nm fluorescence (AID 1115);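 note: probe is biotinylated aNog protein used at 0.15 µg/mL for 1 h at 4 C; z-score combines 667 nm fluorescence of each spot with its signal to noise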
# setup_conditions: higher = more signal
Criterion: composite z-score meeting or surpassing 0.2. Met: yes. Not met: no.

C=C(/C(=C/C[C@H](OC(=O)c1ccncc1)c1cccc(OCCO)c1)c1cc(C(=O)OC)ccc1OC)C(C)C no
CC(C)(C)OC(=O)CC[C@@]12N=C(c3ccc(OCCCO)cc3)O[C@@H]1c1ccccc1N(Cc1ccccc1)C2=O yes
C[N+](C)(C)CCCCNC(=O)[C@@H]1C[C@@H]2C(=O)NCC(=O)N2[C@@H]1c1cccc(OCCO)c1 no
COCCCNC(=O)[C@@]1(Cc2ccccc2CN=[N+]=[N-])COC(c2ccc(OCCCO)cc2)=N1 yes
COC(=O)C(CC#Cc1ccc2c(c1)[C@]1(C(=O)N2)[C@H](c2ccccc2OCCO)N2[C@H](c3ccccc3)[C@H](c3ccccc3)OC(=O)[C@H]2[C@@H]1C(=O)N1CCCCCCC1)C(=O)OC yes
C=CCNC(=O)[C@H]1[C@@H]2C(=O)O[C@@H](c3ccccc3)[C@@H](c3ccccc3)N2[C@@H](c2ccccc2OCCO)[C@]12C(=O)N(C(=O)OCCOC)c1ccc(C#CCCO)cc12 yes

---

# procedure_text: inducers of Cryptococcus neoformans cell lysis, dose response, AK release luminescence, cherry-picks (AID 687000);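 note: luminescent detection of adenylate kinase leaking from lysed yeast; 0% = median neutral control signal and 100% = double that signal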
# setup_conditions: C. neoformans lysis, adenylate kinase release luminescence, 4 h, 100% = twice the neutral-control signal; series mostly up to 15 µM
Entries with a potency or affinity are not part of this list. The source made the active and inactive calls.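 Rule for the calls: active = fitted dose curve reaches 40% lysis signal rise at or below the highest valid concentration tested for that sample; inconclusive = flat fit between 30% and 70%, or poor curve fit; inactive = signal falls, stays flat within 30%, or no crossing.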
readout_type: outcome

molecule	readout_type	assay_value
COc1ccccc1C(=O)Nc1ccc2c(c1)C(=O)N(C)C[C@@H](OC)[C@H](C)CN(C)[C@@H](C)CO2	outcome	inactive
COc1ccc(N2CCN(C(=O)CSc3ncnc4c3cnn4-c3ccc(OC)cc3)CC2)cc1	outcome	inactive
CC(C)C(=O)N1CCC1(C)C(=O)Nc1ccccc1C(C)(C)C (centres undefined)	outcome	inactive
CC(C)NC(=O)N(C)C[C@@H]1OCCCC[C@H](C)Oc2ccc(NC(=O)c3ccccc3)cc2C(=O)N([C@H](C)CO)C[C@H]1C	outcome	inactive

# credit: PubChem BioAssay
